Target: Arabidopsis thaliana glucose-6-phosphate dehydrogenase isoform At1g24280 (P2 class), N-terminally truncated without transit peptide (cP2, 5′ delta 195 bp) (Arabidopsis thaliana, UniProt Q8L743)
Sequence (Q8L743 67-599): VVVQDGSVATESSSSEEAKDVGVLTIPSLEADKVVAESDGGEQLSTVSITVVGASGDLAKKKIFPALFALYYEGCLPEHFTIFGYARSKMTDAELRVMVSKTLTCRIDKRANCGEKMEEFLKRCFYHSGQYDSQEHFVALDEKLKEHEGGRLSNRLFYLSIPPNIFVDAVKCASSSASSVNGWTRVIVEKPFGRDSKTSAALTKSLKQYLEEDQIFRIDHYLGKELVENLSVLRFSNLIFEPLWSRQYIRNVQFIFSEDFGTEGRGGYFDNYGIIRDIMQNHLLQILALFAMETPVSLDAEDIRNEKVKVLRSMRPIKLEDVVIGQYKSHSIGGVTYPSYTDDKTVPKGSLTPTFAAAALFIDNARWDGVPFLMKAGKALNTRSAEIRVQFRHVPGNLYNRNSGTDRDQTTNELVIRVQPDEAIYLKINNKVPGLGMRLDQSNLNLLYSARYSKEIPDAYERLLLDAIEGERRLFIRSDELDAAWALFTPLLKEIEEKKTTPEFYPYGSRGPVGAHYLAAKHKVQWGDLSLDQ
Assay: biochemical
pKi: −log10 of the molar value.
MEASURED ENDPOINT: pKi

query_smiles=NC(=O)C1=CN([C@@H]2O[C@H](COP(=O)(O)OP(=O)(O)OC[C@H]3O[C@@H](n4cnc5c(N)ncnc54)[C@H](OP(=O)(O)O)[C@@H]3O)[C@@H](O)[C@H]2O)C=CC1 experimental_result=5.34
